Test system: HuCCT-1
assay_summary: Cytotoxicity against human HuCCT1 cells after 72 hrs by MTT assay
Format: functional, cell-based
reported_property: growth inhibition (GI)

In the examples that follow, each entry is paired with its recorded growth inhibition (GI).
• CCCCCCCCCCNc1ccc(O)cc1 = Dose-dependent effect
• CCCCCCCCCCCC(=O)Nc1ccc(O)cc1 = Dose-dependent effect
• CC1=C(/C=C/C(C)=C/C=C/C(C)=C/C(=O)Nc2ccc(O)cc2)C(C)(C)CCC1 [FENRETINIDE] = Dose-dependent effect
• CCCCCCCCCC(=O)Nc1ccc(O)cc1 = Dose-dependent effect

Now for a further compound.
Please report the measured growth inhibition (GI) for `CCCCCCCCCCCCNc1ccc(O)cc1`
Dose-dependent effect
